Assay: chemical genetic growth profiling, strain panel (AID 1159580);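 further: tested at 20 µM; growth read once vehicle control cultures reached saturation at 30 °C; lower values mean less growth of the strain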
Conditions: S. cerevisiae deletion strains, growth OD, locus YHR079C, strain IRE1
Out of some 5,500 compounds screened, about 2,000 (36%) were called active. About 18% were inconclusive and are not listed. No stated cut-off is given here; in the data, active means normalized growth mostly below about 0.91 (no sharp cut-off); inconclusive means no clear call, values can overlap the other calls; inactive means mostly above about 0.92. The list shows a part of the results.
Classes used: Yes = active, No = inactive

[[record]]
compound = "CN(C)[C@@H]1C(=O)C(C(N)=O)=C(O)[C@@]2(O)C(=O)C3=C(O)c4c(O)cccc4[C@@](C)(O)[C@H]3[C@H](O)[C@@H]12"
cat = "No"

[[record]]
compound = "O=C(Nc1ccc(F)cc1F)c1cc(Cl)c(-n2cccc2)c(Cl)c1"
cat = "No"

[[record]]
compound = "O=C(O)c1cc(O)c2c(c1)[C@@H]([C@@H]1c3cc(C(=O)O)cc(O)c3C(=O)c3c(O[C@H]4O[C@H](CO)[C@@H](O)[C@H](O)[C@H]4O)cccc31)c1cccc(O[C@H]3O[C@H](CO)[C@@H](O)[C@H](O)[C@H]3O)c1C2=O"
cat = "No"

[[record]]
compound = "COc1ccc(C2Sc3ccccc3N(CCN(C)C)C(=O)C2OC(C)=O)cc1 (stereo not given)"
cat = "No"

[[record]]
compound = "OC(COc1ccc(F)cc1)(c1ccc(Cl)cc1)c1ccc(Cl)cc1"
cat = "No"

[[record]]
compound = "CC(=O)OCC(=O)[C@@]1(O)[C@H](C)CC2C3CCC4=CC(=O)C=C[C@]4(C)[C@@]3(F)[C@@H](O)C[C@@]21C (stereo not given in full)"
cat = "No"

[[record]]
compound = "Clc1ccc(SCc2ccsc2-c2ncns2)cc1"
cat = "No"

[[record]]
compound = "CN(C)CCCN1c2ccccc2CCc2ccccc21"
cat = "No"

[[record]]
compound = "O=C(O)c1ccc(S(=O)(=O)N(Cl)Cl)cc1"
cat = "No"

[[record]]
compound = "C=C1c2cccc(O)c2C(O)=C2C(=O)[C@]3(O)C(O)=C(C(N)=O)C(=O)[C@@H](N(C)C)[C@@H]3[C@@H](O)[C@H]12"
cat = "No"

[[record]]
compound = "CSc1n[nH]c(-c2cc(C(C)(C)C)oc2C)c1C#N"
cat = "No"

[[record]]
compound = "O=P1(NCCCl)OCCCN1CCCl (stereo not given)"
cat = "No"

[[record]]
compound = "CC(=O)O[C@H]1CCC2(C)C3=C(CCC2C1(C)C)[C@]1(C)CCC(C(C)CCC=C(C)C)[C@@]1(C)CC3 (stereo not given in full)"
cat = "No"

[[record]]
compound = "CC(C)CCCC(C)[C@H]1CCC2C3C(=O)C=C4C[C@@H](O)CC[C@]4(C)C3CC[C@@]21C (stereo not given in full)"
cat = "No"

[[record]]
compound = "N/C(Cc1cccc2ccccc12)=N/OC(=O)c1ccc(Cl)cc1"
cat = "No"

[[record]]
compound = "O=C(O)c1ccccc1"
cat = "No"

[[record]]
compound = "CS(=O)(=O)c1ccc([C@@H](O)[C@@H](CO)NC(=O)C(Cl)Cl)cc1"
cat = "No"

[[record]]
compound = "NCCCNCCCCNCCCN"
cat = "No"

[[record]]
compound = "Cc1cn[nH]c1"
cat = "No"

[[record]]
compound = "O=C(NCO)c1cccnc1"
cat = "No"

[[record]]
compound = "Cc1nc(N)cc(C[n+]2csc(CCO)c2C)n1"
cat = "No"

[[record]]
compound = "Cc1onc(-c2c(F)cccc2Cl)c1/C(N)=N\\OC(=O)c1ccc(C(C)(C)C)cc1"
cat = "No"

[[record]]
compound = "O=C(NOC(=O)c1ccccc1)c1ccccc1"
cat = "Yes"

[[record]]
compound = "CN(C)CCC(c1ccc(Cl)cc1)c1ccccn1 (stereo not given)"
cat = "No"

[[record]]
compound = "Cc1nn(-c2cccc(Cl)c2)c2oc(=O)cc(C(F)(F)F)c12"
cat = "Yes"

[[record]]
compound = "CN(C)CCCN1c2ccccc2CCc2ccc(Cl)cc21"
cat = "No"

[[record]]
compound = "C[n+]1ccccc1/C=N/O"
cat = "No"

[[record]]
compound = "CN(C)[C@@H]1C(=O)C(C(N)=O)=C(O)[C@@]2(O)C(=O)C3=C(O)c4c(O)ccc(Cl)c4[C@@H](O)[C@H]3C[C@@H]12"
cat = "No"

[[record]]
compound = "Nc1ccc(S(=O)(=O)NC(=O)c2ccccc2)cc1"
cat = "No"

[[record]]
compound = "CN1CCN(C(=O)OC2c3nccnc3C(=O)N2c2ccc(Cl)cn2)CC1 (stereo not given)"
cat = "No"

